# target: Thymidine phosphorylase (Escherichia coli K-12, UniProt P07650)
# Sequence (P07650 whole entry): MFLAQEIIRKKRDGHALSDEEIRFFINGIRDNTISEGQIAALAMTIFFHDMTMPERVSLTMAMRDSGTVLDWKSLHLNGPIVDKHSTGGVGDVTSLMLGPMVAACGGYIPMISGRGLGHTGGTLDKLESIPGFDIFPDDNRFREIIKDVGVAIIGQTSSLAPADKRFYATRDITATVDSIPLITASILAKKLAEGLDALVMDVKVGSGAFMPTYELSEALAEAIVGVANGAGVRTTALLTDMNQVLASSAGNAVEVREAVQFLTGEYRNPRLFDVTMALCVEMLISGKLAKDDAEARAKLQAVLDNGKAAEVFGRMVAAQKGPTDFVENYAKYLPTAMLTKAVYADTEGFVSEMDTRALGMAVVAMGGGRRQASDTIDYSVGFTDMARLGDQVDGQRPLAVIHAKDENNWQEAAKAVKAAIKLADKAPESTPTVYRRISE
# protocol.description: Inhibition of Escherichia coli thymidine phosphorylase pretreated for 10 mins followed by substrate addition measured at 10 mins interval for 30 mins by spectrophotometric method
# experimental.conditions: read-out: IC50
Attribute: pIC50
Scale note: pIC50 = -log10(concentration in M).

Please review the following examples before continuing.
COc1ccc(-c2nnc(-c3ccc(C(c4c[nH]c5ccc(Cl)cc45)c4c[nH]c5ccc(Cl)cc45)cc3)o2)cc1O
4.47
O=[N+]([O-])c1ccccc1-c1nnc(-c2ccc(C(c3c[nH]c4ccc(Cl)cc34)c3c[nH]c4ccc(Cl)cc34)cc2)o1
4.19

Problem: Which pIC50 value belongs to `Fc1ccccc1-c1nnc(-c2ccc(C(c3c[nH]c4ccc(Cl)cc34)c3c[nH]c4ccc(Cl)cc34)cc2)o1` ?
Solution: 4.76

Problem: What do you have for `Oc1cccc(-c2nnc(-c3ccc(C(c4c[nH]c5ccc(Cl)cc45)c4c[nH]c5ccc(Cl)cc45)cc3)o2)c1` ?
Solution: 4.27

Problem: Note, next up: `Oc1ccc(-c2nnc(-c3ccc(C(c4c[nH]c5ccc(Cl)cc45)c4c[nH]c5ccc(Cl)cc45)cc3)o2)cc1O`
Solution: 4.92

Problem: And the next one, `COc1ccc(-c2nnc(-c3ccc(C(c4c[nH]c5ccc(Cl)cc45)c4c[nH]c5ccc(Cl)cc45)cc3)o2)c(O)c1` ?
Solution: 4.45

Problem: Record: `Oc1ccc(-c2nnc(-c3ccc(C(c4c[nH]c5ccc(Cl)cc45)c4c[nH]c5ccc(Cl)cc45)cc3)o2)c(O)c1`
Solution: 5.46

Data provenance is ChEMBL document CHEMBL4118233.
